Source: patent EP4737445A1

Measured Target: CYP2D6 (Homo sapiens, UniProt P10635)
Construct: human liver microsomes (0.25 mg/mL); from tissue; host or cells: human liver microsomes
Sequence (P10635 whole entry): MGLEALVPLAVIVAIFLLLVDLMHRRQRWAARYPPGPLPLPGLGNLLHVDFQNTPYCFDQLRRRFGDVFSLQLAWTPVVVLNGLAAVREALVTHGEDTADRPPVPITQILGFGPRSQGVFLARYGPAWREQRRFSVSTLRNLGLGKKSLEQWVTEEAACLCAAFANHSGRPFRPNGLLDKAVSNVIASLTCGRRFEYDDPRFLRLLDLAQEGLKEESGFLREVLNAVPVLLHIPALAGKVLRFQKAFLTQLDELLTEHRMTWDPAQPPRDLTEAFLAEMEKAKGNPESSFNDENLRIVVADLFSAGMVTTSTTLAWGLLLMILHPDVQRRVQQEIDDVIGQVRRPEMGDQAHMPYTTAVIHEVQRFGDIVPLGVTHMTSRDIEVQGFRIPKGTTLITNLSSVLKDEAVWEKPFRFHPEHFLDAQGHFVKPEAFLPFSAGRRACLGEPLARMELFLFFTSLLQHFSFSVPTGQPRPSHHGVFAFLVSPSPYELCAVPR
Test Description: CYP isoenzyme activity inhibition in human liver microsomes, CYP2D6
Format: in vitro ADME
Run Conditions: 10 µM compound; human liver microsomes 0.25 mg/mL; relative to control without compound
Below, each of the molecules is paired with its reported CYP2D6 (% activity) value.
Write down the numeric answer in % activity and omit the unit.

CC1CN(C(=O)Nc2nc3ccc(NN=C(C#N)C#N)cc3s2)CC(C)O1 (stereo not drawn) : 85.9
Cn1c(N2C3CCC2COC3)nc2cc(NN=C(C#N)C#N)ccc21 : 94.9
CC1COCCN1c1nc2ccc(NN=C(C#N)C#N)cc2o1 (stereo not drawn) : 92.1
COC1CCN(c2nc3ccc(NN=C(C#N)C#N)cc3o2)CC1 : 89.5
Cn1c(N2C3CCC2COC3)nc2ccc(NN=C(C#N)C#N)cc21 : 92.4

Proceed to the following item.
Task: Need CYP2D6 (% activity) of "CC(C)N1CCN(c2nc3ccc(NN=C(C#N)C#N)cc3o2)CC1" , thanks.
Result: 78

----------
Measured Target: Tau (Homo sapiens, UniProt P10636)
Construct: BiFC fluorescent-protein fragments (two complementary halves on two tau copies); expressed in transfected cells
Sequence (P10636 1-441 isoform P10636-8): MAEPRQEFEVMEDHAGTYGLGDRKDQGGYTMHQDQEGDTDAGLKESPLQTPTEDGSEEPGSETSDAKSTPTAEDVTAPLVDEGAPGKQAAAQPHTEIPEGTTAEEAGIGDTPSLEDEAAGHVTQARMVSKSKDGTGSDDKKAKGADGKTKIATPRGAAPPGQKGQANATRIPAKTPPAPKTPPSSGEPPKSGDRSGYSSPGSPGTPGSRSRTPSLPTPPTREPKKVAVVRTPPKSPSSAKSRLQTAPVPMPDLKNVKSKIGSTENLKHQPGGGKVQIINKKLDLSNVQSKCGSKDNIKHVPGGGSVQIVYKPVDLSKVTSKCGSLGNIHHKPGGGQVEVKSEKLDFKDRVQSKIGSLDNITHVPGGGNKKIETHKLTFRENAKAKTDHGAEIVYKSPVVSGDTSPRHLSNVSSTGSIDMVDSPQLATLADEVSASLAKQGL
Test Description: Tau aggregation inhibition in Tau-BiFC cell model (Forskolin-induced)
Type: cell-based
Below, each of the compounds is paired with its reported log10(IC50) value.
Would you kindly interpret these values as log10 of IC50 expressed in nM?

Recorded results for 3 compounds are shown here.
N#CC(C#N)=NNc1cc2oc(N3CCOCC3)nc2cc1Cl : 2.66
N#CC(C#N)=NNc1ccc2nc(N3CCCCC3)oc2c1 : 1.20
N#CC(C#N)=NNc1ccc2nc(N3CC4CCC(C3)O4)oc2c1 : 1.00

Task: Checklist item: log10(IC50) tested on Tau (Homo sapiens, UniProt P10636), entry N#CC(C#N)=NNc1ccc2nc(-c3ccc(F)cc3)sc2c1 [Comparative compound 3, reference compound] , value?
Result: 3.51

Task: Input N#CC(C#N)=NNc1ccc2nc(-c3ccccc3)sc2c1 [Comparative compound 2, reference compound]
Result: 3.45

----------
Below, each of the compounds is paired with its reported Mouse microsomes (% remaining) value.
Test Description: Liver microsomal stability, mouse
Assay type: in vitro ADME
Run Conditions: 1 µM compound; 0.5 mg/mL microsomes; NADPH; 30 minutes at 37°C
Write down the numeric answer in % remaining and omit the unit.

Recorded results for 3 compounds are shown here.
CN1CCN(c2nc3ccc(NN=C(C#N)C#N)cc3s2)CC1 : 77.4
N#CC(C#N)=NNc1ccc2nc(NC(=O)N3CCOCC3)sc2c1 : 86.1
CC1COCCN1c1nc2ccc(NN=C(C#N)C#N)cc2o1 (stereo not shown) : 89.5

Task: Need Mouse microsomes (% remaining) of "N#CC(C#N)=NNc1ccc2nc(N3CCOCC3)sc2c1" , thanks.
Result: 94.10

----------
Test Description: Pharmacokinetic study in rats (IV and PO, plasma)
Assay type: in vivo
Run Conditions: Sprague-Dawley, rat, SD rats, IV, 1 mg/kg
Measured Parameter: half-life
Reply with the number, then its unit.

Task: Need half-life of "N#CC(C#N)=NNc1ccc2nc(N3C4CCC3COC4)oc2c1" , thanks.
Result: 12 min
